Measured Ki on 5-HT1A receptor (Homo sapiens, UniProt P08908) follows.
Sequence (P08908 whole entry): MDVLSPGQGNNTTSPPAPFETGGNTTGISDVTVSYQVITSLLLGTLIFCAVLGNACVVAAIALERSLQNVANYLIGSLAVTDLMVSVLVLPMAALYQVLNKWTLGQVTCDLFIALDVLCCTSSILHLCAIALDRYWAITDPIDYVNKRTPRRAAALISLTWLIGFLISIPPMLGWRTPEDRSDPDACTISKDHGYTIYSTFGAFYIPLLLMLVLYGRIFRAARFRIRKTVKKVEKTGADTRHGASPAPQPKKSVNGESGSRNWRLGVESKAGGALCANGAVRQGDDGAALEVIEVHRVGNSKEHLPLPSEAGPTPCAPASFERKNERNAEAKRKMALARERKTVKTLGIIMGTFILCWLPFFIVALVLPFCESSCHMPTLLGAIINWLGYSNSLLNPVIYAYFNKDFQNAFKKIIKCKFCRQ
Return type: number; implicit unit µM.

Recorded result, Cl.Nc1nc(NCCc2ccccc2)nc(NCCc2c[nH]c3ccc(F)cc23)n1 [Compound 2] , Ki: 13.9

Reported Ki of Cl.Nc1nc(NCCNc2cccc(F)c2)nc(NCCc2c[nH]c3ccccc23)n1 [Compound 11] : 34.6

Given item Cl.Nc1nc(NCCc2c[nH]c3ccccc23)nc(NCCn2c(C(F)(F)F)nc3ccccc32)n1 [Compound 19] , the value recorded as its Ki is 76.2
